Hi there, I'd appreciate the recorded Potency for every entry that follows.
# Target or test system: Glucocorticoid receptor (Homo sapiens) (UniProt P04150)
# Sequence (P04150 whole entry, looked up): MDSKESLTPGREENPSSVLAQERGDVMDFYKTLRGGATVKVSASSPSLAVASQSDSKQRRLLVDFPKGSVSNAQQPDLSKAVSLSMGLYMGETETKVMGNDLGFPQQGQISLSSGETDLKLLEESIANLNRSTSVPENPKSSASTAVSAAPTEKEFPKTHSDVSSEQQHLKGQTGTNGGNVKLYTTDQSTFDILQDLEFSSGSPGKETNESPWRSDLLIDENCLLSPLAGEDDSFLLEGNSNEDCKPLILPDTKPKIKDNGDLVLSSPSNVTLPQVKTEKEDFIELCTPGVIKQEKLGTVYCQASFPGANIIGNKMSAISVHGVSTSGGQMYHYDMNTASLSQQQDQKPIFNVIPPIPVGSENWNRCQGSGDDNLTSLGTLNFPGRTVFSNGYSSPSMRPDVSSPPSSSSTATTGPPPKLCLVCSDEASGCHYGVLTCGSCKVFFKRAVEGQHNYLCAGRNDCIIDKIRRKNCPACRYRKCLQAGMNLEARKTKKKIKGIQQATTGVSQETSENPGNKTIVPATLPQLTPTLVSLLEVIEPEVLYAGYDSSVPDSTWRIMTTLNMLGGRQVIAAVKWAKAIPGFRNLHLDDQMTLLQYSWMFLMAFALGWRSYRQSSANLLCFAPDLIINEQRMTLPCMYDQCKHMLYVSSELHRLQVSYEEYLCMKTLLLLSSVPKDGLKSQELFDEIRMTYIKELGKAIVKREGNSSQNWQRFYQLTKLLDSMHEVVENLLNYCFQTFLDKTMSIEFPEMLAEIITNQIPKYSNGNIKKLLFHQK
# Measurement protocol: GR-GFP Redistribution (AID 450); further: potency means the concentration at half of the fitted maximal effect
# Settings: U2OS GR-GFP nuclear translocation, laser cytometry, 2 h
Activity calls are given as the source filed them.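 How the source made its calls: active means compounds whose dose series gives a full or clear partial fitted curve of increased nuclear translocation; inconclusive means weak partial curve or effect only at the top dose; inactive means no dose-dependent translocation response.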

Requested field: Potency. Item: CN(C)[C@@H]1C(=O)C(C(N)=O)=C(O)[C@]2(O)C(=O)C3=C(O)c4c(O)ccc(Cl)c4[C@](C)(O)[C@H]3C[C@@H]12 > 20.6 µM (inactive)

Next up: O=c1ccc2cc(O[C@H]3O[C@@H](CO)[C@@H](O)[C@@H](O)[C@@H]3O)c(O)cc2o1 > 20.6 µM (inactive)

Next up: CC(C)c1c(CN(C)[C@@H](C)Cc2ccccc2)n(C)n(-c2ccccc2)c1=O > 20.6 µM (inactive)

Next up: C=C[C@H]1CN2CC[C@@H]1C[C@H]2[C@@H](O)c1ccnc2ccccc12 > 20.6 µM (inactive)

Next up: CC[C@H](C)C(=O)O[C@@H]1[C@H](O)[C@@H]2[C@H](CN3C[C@@H](C)CC[C@@H]3[C@@]2(C)O)[C@@H]2C[C@@]34O[C@@]5(O)[C@@H](OC(=O)[C@](C)(O)CC)CC[C@@]3(C)[C@H]5[C@H](OC(C)=O)[C@@H](OC(C)=O)[C@H]4[C@]12O > 20.6 µM (inactive)

Next up: COc1cc2c3cc1Oc1cc(ccc1O)C[C@@H]1c4c(cc(OC)c(O)c4Oc4cccc(c4)C[C@H]3N(C)CC2)CC[N+]1(C)C > 20.6 µM (inactive)

Next up: O=C(O)C1=CCCN(CCOC(c2ccc(C(F)(F)F)cc2)c2ccc(C(F)(F)F)cc2)C1 > 46 µM (inactive)

Next up: C#C[C@@]1(O)CC[C@@H]2[C@@H]3CCC4=CC(=O)CC[C@@]4(C)[C@H]3CC[C@]21C 0.155 µM (active)

Next up: CC(C)C[C@H]1C(=O)N2CCC[C@@H]2[C@@]2(O)O[C@](NC(=O)[C@@H]3C=C4c5cccc6[nH]cc(c56)C[C@@H]4N(C)C3)(C(C)C)C(=O)N12 > 20.6 µM (inactive)

Next up: C[C@@]12CC[C@H](O)C[C@@H]1CC[C@H]1[C@@H]2C[C@@H](O)[C@]2(C)[C@@H](C3=CC(=O)OC3)CC[C@]12O > 20.6 µM (inactive)

Next up: Cc1nnc2ccc(-c3cccc(C(F)(F)F)c3)nn12 > 46 µM (inactive)

Next up: CCCCn1c(O)c(C=NCCN2CCCCC2)c(=O)[nH]c1=O > 20.6 µM (inactive)

Next up: C[C@H]1CN(C2CCC(C#N)(c3ccc(F)cc3)CC2)CC[C@@]1(C(=O)O)c1ccccc1 (stereo partly specified) > 20.6 µM (inactive)

Next up: C/C=C1\C[N@@+]2(C)CC[C@@]34C(=C(C=O)[C@H]1C[C@H]32)Nc1ccccc14 > 20.6 µM (inactive)

Next up: C[C@H](N)[C@@H](O)c1ccccc1 > 20.6 µM (inactive)

Next up: CCCN(CCC)C(=O)Cc1c(-c2ccc(Cl)cc2)nc2c(Cl)cc(Cl)cn12 > 46 µM (inactive)
